Test system: NHBE cells
Assay: Biolog metabolic array: substrate use by NHBE cells with or without CA09 infection
Type: cell-based, human
Settings: Control (uninfected) NHBE cells, Biolog PMM2, 7 hr
Test readout: Substrate use, 590 nm absorbance normalized to zero hour, 7 hr
Give bare numbers.

Known Substrate use, 590 nm absorbance normalized to zero hour, 7 hr results, listed for orientation:
| Compound | Readout value |
| --- | --- |
| CC(=O)C(C)O (stereo not drawn) [3-Hydroxy 2-Butanone] | 1.80 |
| OC[C@H]1O[C@H](OC[C@H]2OC(O)(CO)[C@@H](O)[C@@H]2O)[C@H](O)[C@@H](O)[C@@H]1O (stereo partly drawn) [Palatinose] | 2.18 |
| O=C(CO)[C@@H](O[C@H]1O[C@H](CO)[C@@H](O)[C@H](O)[C@H]1O)[C@H](O)[C@H](O)CO [Turanose] | 0.44 |
| OC[C@@H](O)[C@@H](O[C@H]1O[C@H](CO)[C@@H](O)[C@H](O)[C@H]1O)[C@H](O)[C@@H](O)CO [Maltitol] | 4.49 |
| C[C@@H](O)CC(=O)O [b-Hydroxy-Butyric Acid] | 2.49 |

For every record below, what is its Substrate use, 590 nm absorbance normalized to zero hour, 7 hr?
1. O=P(O)(O)OC[C@H](O)CO (racemic) [D,L-a-Glycerol Phosphate]
2. O=C[C@H](O)[C@@H](O)[C@H](O)[C@H](O)COP(=O)(O)O [D-Glucose-6-Phosphate]
3. CC(=O)N[C@@H]1C(O)O[C@H](CO)[C@@H](O)[C@@H]1O (stereo partly drawn) [N-Acetyl-D-Mannosamine]
4. CC(O)C(=O)O [L-Lactic Acid (DL)]
5. CC(=O)N[C@H]1C(O)O[C@H](CO)[C@@H](O)[C@@H]1O (stereo partly drawn) [N-Acetyl-D-Glucosamine]

1. 0.79
2. 2.93
3. 0.61
4. 2.97
5. 0.46

For every record below, what is its Substrate use, 590 nm absorbance normalized to zero hour, 7 hr?
1. COC(=O)CCC(=O)O [Mono Methyl Succinate]
2. O=C(CO)[C@@H](O)[C@H](O)[C@H](O)COP(=O)(O)O [D-Fructose-6-Phosphate]
3. O=C(O)CC(CC(=O)O)C(=O)O [Tricarballylic Acid]
4. COC(=O)[C@@H](C)O [Methyl D-Lactate]
5. OC[C@H]1O[C@@H](O[C@@H]2[C@@H](CO)OC(O)(CO)[C@H]2O)[C@H](O)[C@@H](O)[C@H]1O (mixture of isomers) [Lactulose]
6. Cc1cn([C@H]2C[C@H](O)[C@@H](CO)O2)c(=O)[nH]c1=O [Thymidine]
7. O[C@H]1[C@H](O)[C@@H](O)[C@H](O)[C@@H](O)[C@H]1O [m-Inositol]
8. NCCCC(=O)O [g-Amino Butyric Acid]

1: 1.07; 2: 1.00; 3: 0.89; 4: 2.14; 5: 3.82; 6: 0.61; 7: 3.55; 8: 1.05

###

Answer each item with its documented Substrate use, 590 nm absorbance normalized to zero hour, 5 hr.
Test system: NHBE cells
Assay: Biolog metabolic array: substrate use by NHBE cells with or without CA09 infection
Format: cell-based, human
Details: Control (uninfected) NHBE cells, Biolog PMM2, 5 hr
Answers are plain numbers.

Known Substrate use, 590 nm absorbance normalized to zero hour, 5 hr results, listed for orientation:
| Molecule | Target system | Readout value |
| --- | --- | --- |
| OC[C@H]1O[C@@H]2O[C@H]3[C@H](O)[C@@H](O)[C@@H](O[C@H]4[C@H](O)[C@@H](O)[C@@H](O[C@H]5[C@H](O)[C@@H](O)[C@@H](O[C@H]6[C@H](O)[C@@H](O)[C@@H](O[C@H]7[C@H](O)[C@@H](O)[C@@H](O[C@H]1[C@H](O)[C@H]2O)O[C@@H]7CO)O[C@@H]6CO)O[C@@H]5CO)O[C@@H]4CO)O[C@@H]3CO | NHBE cells | 4.31 |
| CO[C@H]1O[C@H](CO)[C@@H](O)[C@H](O)[C@H]1O [a-Methyl-D-Glucoside] | NHBE cells | 0.76 |
| OC[C@H]1O[C@H](OCC2O[C@@H](O)[C@H](O)[C@@H](O)[C@@H]2O)[C@H](O)[C@@H](O)[C@H]1O (stereo partly shown) | NHBE cells | 1.69 |
| O=C(O)[C@H](O)[C@@H](O)[C@H](O)[C@H](O)CO[C@H]1O[C@H](CO)[C@H](O)[C@H](O)[C@H]1O | NHBE cells | 0.48 |
| CCC(=O)O | NHBE cells | 1.91 |
| OC[C@@H](O)[C@@H](O[C@@H]1O[C@H](CO)[C@H](O)[C@H](O)[C@H]1O)[C@H](O)[C@@H](O)CO | NHBE cells | 0.39 |

For every record below, what is its Substrate use, 590 nm absorbance normalized to zero hour, 5 hr?
1. O=C(CO)[C@@H](O)[C@H](O)[C@H](O)CO
2. OCC1OC(OC2C(CO)OC(OC3C(CO)OC(O)C(O)C3O)C(O)C2O)C(O)C(O)C1O (stereo not shown)
3. O=C(O)C[C@H](O)C(=O)O
4. CO[C@H]1O[C@H](CO)[C@@H](O)[C@H](O)[C@@H]1O [a-Methyl-D-Mannoside]
5. O=C[C@@H](O)[C@H](O)[C@H](O)CO
6. CC(=O)CC(=O)O

[2.59, 6.09, 1.41, 2.33, 0.99, 2.15]

For every record below, what is its Substrate use, 590 nm absorbance normalized to zero hour, 5 hr?
1. Cc1cn([C@H]2C[C@H](O)[C@@H](CO)O2)c(=O)[nH]c1=O
2. OC[C@H]1O[C@@H](OC[C@H]2OC(O)[C@H](O)[C@@H](O)[C@@H]2O)[C@H](O)[C@@H](O)[C@@H]1O (stereo partly shown)
3. O=C(O)CC(CC(=O)O)C(=O)O
4. O=C(O)CC(O)(CC(=O)O)C(=O)O

1: 1.75; 2: 3.72; 3: 0.72; 4: 1.22
